# target: 3',5'-cyclic-AMP phosphodiesterase 4B (Homo sapiens) (UniProt Q07343)
# Sequence (Q07343 whole entry, looked up): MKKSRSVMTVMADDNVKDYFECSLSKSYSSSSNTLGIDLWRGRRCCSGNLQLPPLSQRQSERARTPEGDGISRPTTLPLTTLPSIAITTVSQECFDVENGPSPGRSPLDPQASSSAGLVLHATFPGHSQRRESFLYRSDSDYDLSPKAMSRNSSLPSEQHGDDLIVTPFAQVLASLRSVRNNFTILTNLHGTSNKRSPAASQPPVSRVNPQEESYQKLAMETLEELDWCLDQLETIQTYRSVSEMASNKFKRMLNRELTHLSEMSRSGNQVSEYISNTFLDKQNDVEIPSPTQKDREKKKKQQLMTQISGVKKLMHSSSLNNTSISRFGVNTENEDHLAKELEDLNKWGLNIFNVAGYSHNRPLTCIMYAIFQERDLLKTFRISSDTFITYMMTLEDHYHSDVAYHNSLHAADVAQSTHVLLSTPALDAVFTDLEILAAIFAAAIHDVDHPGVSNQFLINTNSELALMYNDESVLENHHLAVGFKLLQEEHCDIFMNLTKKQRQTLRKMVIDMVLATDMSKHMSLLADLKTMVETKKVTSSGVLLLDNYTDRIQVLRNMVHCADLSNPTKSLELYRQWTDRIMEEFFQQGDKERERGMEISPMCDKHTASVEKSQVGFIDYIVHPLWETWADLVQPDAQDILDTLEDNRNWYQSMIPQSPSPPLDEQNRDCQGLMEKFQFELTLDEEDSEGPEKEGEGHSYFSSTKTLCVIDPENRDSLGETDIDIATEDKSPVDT
# assay-text: qHTS Assay for Inhibitors of PDE-IV (AID 607)
# assay-context: HEK293 ACTOne CNG channel cells, membrane potential fluorescence; series mostly up to 22.9 µM
Records with an inconclusive call do not appear. Activity calls are given as the source filed them. Calls come from the whole dose curve; as a rule, active = well fitted activation curve with a large enough effect in the main read-out, with a control signal flat (not every such curve was filed as active); inconclusive = small, poorly fitted or top-dose-only effect, or effect the other way, or a change in a side signal; inactive = flat fitted curve, though single readings scatter.
quantity-kind: outcome

O=C1COC(c2ccccc2O)=NN1CCCN1CCCC1 : inactive
O=S(=O)(O)c1ccc(O)c2ncccc12.O=S(=O)(O)c1ccc(O)c2ncccc12.[Zn] : inactive
O=C1Oc2ccccc2C(=O)/C1=C\N1C(=O)N/C(=C\c2ccccc2O)C1=O : inactive
CN(C)CCCN=C(N)N : inactive

Q: Query for 3',5'-cyclic-AMP phosphodiesterase 4B (Homo sapiens) (UniProt Q07343): what outcome does the record show for Clc1ccccc1C(Nc1ncccn1)Nc1ncccn1 ?
A: inactive

Q: Please tell me: outcome of O=S(=O)(O)c1ccc(-c2nnc(-c3ccccn3)nc2-c2ccc(S(=O)(=O)O)o2)o1 , system 3',5'-cyclic-AMP phosphodiesterase 4B (Homo sapiens) (UniProt Q07343)?
A: inactive

---

# target: Cytochrome P450 1A2 (Homo sapiens)
# assay-text: p450-cyp1a2 (AID 410)
# assay-context: recombinant CYP1A2, luciferin-ME demethylation, luminescence; series mostly up to 11.4 µM
# Procedure: The P450 gene superfamily is involved in metabolism and the clearance of xenobiotics. This assay used human CYP1A2 to measure the demethylation of luciferin 6' methyl ether (Luciferin-ME; Promega-Glo) to luciferin. The luciferin is then measured by luminescence after the addition of a luciferase detection regeant. Luciferin-ME concentration in the assay was equal to its Km for CYP1A2. NCGC Assay Protocol Summary: […]
Results filed as inconclusive are left out. Active and inactive are the calls of the source. Calls come from the whole dose curve.
Choose one outcome from this list and give only that: active, inactive

Cc1ccc(S(=O)(=O)Nc2cc(=O)[nH]c3c2CCC3)cc1 : active
CN(C)c1ccc(C(=C2C=CC(=[N+](C)C)C=C2)c2c(O)c(S(=O)(=O)O)cc3cc(S(=O)(=O)O)ccc23)cc1 : active
CNc1ncncc1-c1ccc(C(=O)N(C)C)cc1 : active
CC(C)(C)c1cc2c(O)c(c1)Cc1cc(C(C)(C)C)cc(c1O)Cc1cc(C(C)(C)C)cc(c1O)Cc1cc(C(C)(C)C)cc(c1O)Cc1cc(C(C)(C)C)cc(c1O)Cc1cc(C(C)(C)C)cc(c1O)Cc1cc(C(C)(C)C)cc(c1O)Cc1cc(C(C)(C)C)cc(c1O)C2 : inactive
Cc1ccc2nc(N/N=C\c3cccc(C)n3)cc(C)c2c1 : active
CC(C)CN=C(N)N=C(N)N : inactive
Nc1nc(SCc2ccccc2[N+](=O)[O-])c2[nH]cnc2n1 : active
O=S(=O)(O)c1ccc(-c2nnc(-c3ccccn3)nc2-c2ccc(S(=O)(=O)O)o2)o1 : inactive

Q: Short answer needed: outcome of this test for Cc1ccc(/C(C#N)=C/c2cccc([N+](=O)[O-])c2)cc1 ?
A: active

Q: What is the recorded call for this molecule in the test? NC(=O)NC(=O)[C@H]1CCCC[C@@H]1C(=O)O
A: inactive

Q: Given CC(C)CNC(=O)O , state the outcome it received in this test.
A: inactive

Q: Could you please tell me the result logged for N#C[C@H](c1ccccc1)N1CCCN([C@@H](C#N)c2ccccc2)C1c1ccccc1O (stereo partly specified) in this assay?
A: active

Q: What was the test verdict on Cc1cc(N2CCN(C)CC2)n2nc(-c3ccc(Cl)cc3)nc2n1 ?
A: inactive

Q: Name the outcome recorded for O=C1C[C@H]2C(=O)[C@@H]1[C@@H](C(=O)O)[C@H]2C(=O)O in the assay.
A: inactive

Q: Fill in: this test's call for O[C@@H](COc1cccc2ccccc12)CN1CCOCC1 is ___
A: active

Q: What outcome does the record of this test show for NC(N)=NC[C@@H]1CCCCCCN1 ?
A: inactive

Q: I would be grateful if you could indicate the recorded call for O=C(NNC(=O)c1ccncc1)c1ccncc1 .
A: inactive

Q: Given O=C(O)C(Cc1ccccc1-c1ccccc1)C(=O)O , state the outcome it received in this test.
A: inactive

Q: Could you please tell me the result logged for COc1cc2c3cc1Oc1cc(ccc1O)C[C@@H]1c4c(cc(OC)c(O)c4Oc4ccc(cc4)C[C@H]3[N+](C)(C)CC2)CC[N+]1(C)C in this assay?
A: inactive

Q: Called result for [O-][N+]1(CC[N+]2([O-])CCCCC2)CCCCC1
A: inactive

Q: Field: outcome | Entry: CSc1nc(C)cc(Nc2ccc(O)c(CN3CCOCC3)c2)n1
A: active
